B1: SPSB1 (parent)
chain: DMRDPTYRPLKQELQGLDYCKPTR

Variants of: B1
Test Description: protein stability index of a GFP-peptide fusion (GPS, HEK-293T) (PSI 1-6); higher = more stable;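 note: lentivirally expressed fusions sorted by FACS into six bins by GFP to DsRed ratio, PSI derived from sequencing read proportions per bin multiplied by bin number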
Condition Notes: c terminus: a fixed tail appended
Please go through the items and note down their protein stability index.
The reply should be a number, written without any unit.

Entry under test: DMRDPTYRPLKQELQGLDYKKPTR [C20K] . Its protein stability index was 4.6

Lookup result for DMRDPTYRPLKNELQGLDYCKPTR [Q12N] ; measured protein stability index: 3.17

Recorded result, DMRDPTYRPLKQELQGLDYYKPTR [C20Y] , protein stability index: 3.58

Reported protein stability index ( DMRDPTYRPLGQELQGLDYCKPTR [K11G] ) = 3.17

response.value for DMREPTYRPLKQELQGLDYCKPTR [D4E] (field: protein stability index) = 3.24

Short answer for DMRDPTYRPLKQELQGLDYCKPER [T23E] : protein stability index was 3.92

The variant identified as DMRDPTYRPLKQEIQGLDYCKPTR [L14I] registered its protein stability index at 3.35

Query DMRTPTYRPLKQELQGLDYCKPTR [D4T] yields protein stability index of 2.8

For this variant ( DMRDPTYRPLKCELQGLDYCKPTR [Q12C] ), measured protein stability index is 2.74

Lab note: DMRDPTDRPLKQELQGLDYCKPTR [Y7D] gave protein stability index of 3.61

Noted for DMRDPTYEPLKQELQGLDYCKPTR [R8E] : its protein stability index reads 3.55

Noted for DMRDPTYRPLKQALQGLDYCKPTR [E13A] : its protein stability index reads 3.09

Looking up DMRDPTHRPLKQELQGLDYCKPTR [Y7H] , I see its protein stability index listed as 2.79

The measured protein stability index associated with DMRDPTYRPLKQELQGLDGCKPTR [Y19G] reads 4.73

For DMRDPTYRPLKQELQELDYCKPTR [G16E] the variant record lists protein stability index as 2.93

The variant identified as DMRDPTYRPLKQSLQGLDYCKPTR [E13S] registered its protein stability index at 3.4

Measured protein stability index of DMRDPTYRPLDQELQGLDYCKPTR [K11D] : 3.85

What the record says about DMRDPTYRHLKQELQGLDYCKPTR [P9H] : protein stability index is 2.35

// protein stability index value for DMRDPTYRPLKQDLQGLDYCKPTR [E13D] : 3.68

// sample DMRDPGYRPLKQELQGLDYCKPTR [T6G] , its protein stability index was 3.93

According to the records, this variant DMRDPTYRPLKAELQGLDYCKPTR [Q12A] displays protein stability index of 3.12

Entry under test: DMRDPTYRPLKQELQGLDYCKPTH [R24H] . Its protein stability index was 2.98
